experimentalTarget: T1, human GPVI extracellular region-human Fc fusion protein (hGPVI-hFc) (human)
T1 construct: Expressed in COS-1, purified on Protein A; also called GPVI-HHH-hFc; hGPVIHHH-hFc
T1 sequence (chain, as listed by the source limits assumed): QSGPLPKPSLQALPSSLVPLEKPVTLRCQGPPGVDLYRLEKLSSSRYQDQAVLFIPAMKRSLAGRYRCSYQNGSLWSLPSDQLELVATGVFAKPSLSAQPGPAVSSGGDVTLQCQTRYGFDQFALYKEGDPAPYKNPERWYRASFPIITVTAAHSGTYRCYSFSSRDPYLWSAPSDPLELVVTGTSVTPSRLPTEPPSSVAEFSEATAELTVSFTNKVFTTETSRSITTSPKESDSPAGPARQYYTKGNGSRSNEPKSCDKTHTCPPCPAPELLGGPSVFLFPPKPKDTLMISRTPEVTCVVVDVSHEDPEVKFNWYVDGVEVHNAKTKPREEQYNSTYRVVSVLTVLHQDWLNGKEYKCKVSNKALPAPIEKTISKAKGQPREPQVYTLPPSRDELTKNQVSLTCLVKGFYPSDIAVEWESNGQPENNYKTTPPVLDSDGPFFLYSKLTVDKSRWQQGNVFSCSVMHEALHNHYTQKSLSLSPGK
protocolDetails: SPR (BIACORE3000), GPVI-Fc on CM5 chip, antibody 1.25-40 nM as analyte, bivalent analyte fit
measurementLabel: Kd (nM)
Give bare numbers, in nM.

{"binder": "F1232-24-1 (antibody, V domains shown, Mouse hybridoma monoclonal antibody) VH: VQLQQSGAELVRPGVSVKISCKGSGYTFTDYAMHWVKQSHAKSLEWIGVISTYYGDASYNQKFKGKATMTVDKSSSTAYMELARLTSEDSAIYYCARSYDYDPWFAYWGQGTLVTVSA VL: DIVLTQSPASLAVSLGQRATISCRASESVDNYGISFMHWYQQKPGQPPKLLIYRASNLESGIPARFSGSGSRTDFTLTINPVETDDVATYYCQQSNKDPLTFGAGTKLELKR", "valueUnits": "nM", "Kd": 0.25}

Would you be so kind as to report Kd for each listed record?
1. F1232-18-3 (antibody, V domains shown, Mouse hybridoma monoclonal antibody) VH: VMLVESGGGLVKPGGSLKLSCAASGFTFSSYAMSWVRQTPEKRLEWVATISSGGSYTYYPDSVKGRFTISRDNAKNTLYLQMSSLRSADTAMYYCARDYGYFDYWGQGTTLTVSS VL: DIVLTQSPASLAVSLGQRATISCRASESVDNYGISFMHWYQQKPGQPPKLLFYRASNLESGIPARFSGSGSRTDFTLTINPVETDDVATYYCQQSNTDPRTFGGGTKLEIKR
2. F1232-17-1 (antibody, V domains shown, Mouse hybridoma monoclonal antibody) VH: VQLVESGGDLVKPGGSLKLSCAASGFTFSSYGMSWVRQTPDKRLEWVATISSGGSYTYYPDNVKGRFTISRDNAKNTLYLQMSSLNSEDTAMYYCARQVYYFGSCDYWGQGTTLTVSS VL: DIVLTQSPASLAVSLGQRATISCRASESVDNYGISFMHWYQQKPGQPPKLLIYRASNLESGIPARFSGSGSRTDFTLTINPVETDDVATYYCQQSNKDPWTFGGGTKLEIKR

Return:
1.65
0.522
